# Tested on: Plasmodium falciparum
# protocol: ST_JUDE: Plasmodium falciparum 3D7 EC50 (uM) as measured by SYBR green dye
# Format: functional, organism-based
measured.property: EC50 (µM)
Report the value in µM with no unit label.

These solved cases illustrate the format of a correct answer.
{"columns": ["compound", "tested.system", "observed.measurement"],
 "data": [
  ["CCOc1cccc(C2CC(=O)NC3=C2C(=O)CC(c2ccccc2Cl)C3)c1 (configuration not stated)", "Plasmodium falciparum", 3.72],
  ["CCCO/C(O)=C1\\C(C)=NC2=C(C(=O)CC(c3ccc(OC)c(OC)c3)C2)C1c1cccc(Cl)c1 (configuration not stated)", "Plasmodium falciparum", 0.535],
  ["CCCN1CCN(CCCNC(=O)c2ccc3c(c2)sc2nc(-c4cccc(OC)c4)cn23)CC1", "Plasmodium falciparum", 1.21],
  ["CCOc1c(Br)cc(C2C(C#N)=C(N)Oc3cc4c(cc32)OCO4)cc1OC (configuration not stated)", "Plasmodium falciparum", 2.32],
  ["O=C(Nc1cc(OCC(F)(F)F)cc(OCC(F)(F)C(F)F)c1)c1cccnc1", "Plasmodium falciparum", 3.84]
]}

Reported EC50 for COc1ccc(Nc2cc(C)nc(Nc3ccc(NS(=O)(=O)c4ccc(F)cc4)cc3)n2)cc1 was 1.55

Reported EC50 for CCOC(=O)C1(Cc2ccc(Cl)cc2)CCN(Cc2ccccc2O)CC1 was 0.457

Reported EC50 for CCCC(=O)NC(c1ccc(Cl)cc1)c1ccc2cccnc2c1O (configuration not stated) was 1.88

Reported EC50 for COC(=O)C1C(=O)C2=C(CC1C)NC(=O)CC2c1ccc([N+](=O)[O-])cc1 (configuration not stated) was 3.01

Reported EC50 for CCN(CC)c1cc(C)c2cc(NC(=O)c3cccc(F)c3)ccc2n1 was 1.99

Reported EC50 for CN1/C(=C/c2cccc[n+]2C)Sc2ccccc21 was 0.54

----------
# Test system: Plasmodium falciparum
# protocol: ST_JUDE: Plasmodium falciparum 3D7 EC50 (uM) as measured by SYBR green dye
# Format: functional, organism-based
pEC50: −log10 of the molar value.
measured.property: pEC50

These solved cases illustrate the format of a correct answer.
{"columns": ["compound", "measured.property", "observed.measurement"],
 "data": [
  ["Cc1ccc(Cn2c(=O)c3ccccc3n3c(CCC(=O)N4CCC(C(N)=O)CC4)nnc23)cc1", "pEC50", "< 4.82"],
  ["CC[N+](CC)(CC)CCCOC1CC(C)CCC1C(C)C (stereo not given)", "pEC50", "< 4.82"],
  ["CC(C)C(=O)N1CCOc2c(cc(-c3csc4ccccc34)cc2OCCc2ccccn2)C1", "pEC50", "< 4.82"],
  ["CCCCc1ccc(NC(=O)Cc2csc(NC(=O)c3cc(OC)cc(OC)c3)n2)cc1", "pEC50", "< 4.82"]
]}

Kindly review the next compound as well.
Reported pEC50 for Cc1ccnc(NC(c2ccccc2F)c2ccc3cccnc3c2O)c1 (stereo not given) was 5.73

----------
# Test system: Plasmodium falciparum
# protocol: ST_JUDE: Cytotoxicity against Plasmodium falciparum SB-A6
# Assay type: functional, organism-based
measured.property: EC50 (nM)
Report the value in nM with no unit label.

These solved cases illustrate the format of a correct answer.
{"columns": ["molecule", "tested.system", "EC50 / nM"],
 "data": [
  ["CC(C)(C)c1cc(/N=N/C(=O)c2ccncc2)cc(C(C)(C)C)c1O", "Plasmodium falciparum", 462],
  ["CCO/C(O)=C1\\C(C)=NC2=C(C(=O)CC(c3ccc(OC)c(OC)c3)C2)C1c1ccccc1C (stereo unspecified)", "Plasmodium falciparum", 87.5],
  ["CCCO/C(O)=C1\\C(C)=NC2=C(C(=O)CC(c3ccc(OC)c(OC)c3)C2)C1c1cccc(Cl)c1 (stereo unspecified)", "Plasmodium falciparum", 199],
  ["CCCCCOc1ccc(N(C(C)=O)C2=C(N3CCCCC3)C(=O)c3ccccc3C2=O)cc1", "Plasmodium falciparum", 110]
]}

Reported EC50 for CCOc1ccc(/C=C2\Oc3c(ccc(O)c3CN3CCCCC3)C2=O)cc1 was 3390

----------
# key: entry, value: EC50
# protocol: ST_JUDE: Cytotoxicity using luciferase to measure ATP as an indicator of the viability of human Burkitt''s lymphoma lymphoblast cells (Raji)
# Assay type: toxicity, cell-based

These solved cases illustrate the format of a correct answer.
{"columns": ["compound", "EC50"],
 "data": [
  ["CCOc1ccc(/C=C/c2nc(=O)c3ccccc3o2)cc1", "> 39.9 µM"],
  ["OC(CNC1CCCCC1)Cn1c2ccc(Cl)cc2c2cc(Cl)ccc21 (configuration not stated)", "> 38.8 µM"],
  ["Cc1cc(C)nc(/N=C(\\N)Nc2ccccc2O)n1", "> 34.2 µM"]
]}

Reported EC50 for CC1=NC2=C(C(=O)CC(c3ccc(Cl)cc3)C2)C(c2ccc(F)cc2)/C1=C(\O)OC(C)C (configuration not stated) was > 39.8 µM

----------
# System: Plasmodium falciparum
# protocol: ST_JUDE: Cytotoxicity against Plasmodium falciparum D10 transfected with yeast DHOD
# Type: functional, organism-based
measured.property: pEC50
Give only the number. pEC50 is defined as minus log10 of concentration in molar units.

Reported pEC50 for Oc1ccc(Cl)cc1CN1CCN(c2cccc(C(F)(F)F)c2)CC1 was 5.78

----------
# System: Plasmodium falciparum
# protocol: ST_JUDE: Plasmodium falciparum 3D7 EC50 (uM) as measured by SYBR green dye
# Format: functional, organism-based
measured.property: pEC50
Give only the number. pEC50 is defined as minus log10 of concentration in molar units.

These solved cases illustrate the format of a correct answer.
{"columns": ["molecule", "observed.measurement"],
 "data": [
  ["CCN(CC)c1ccc(/C=N/NC(=O)c2cccc(NC(=O)c3ccc(C)cc3)c2)c(O)c1", 5.26],
  ["O=C(Nc1cccc(C2=NCCN2)c1)Nc1cccc(C2=NCCN2)c1", 5.72],
  ["CCCCN(C)Cc1c(O)ccc2c(=O)c(Oc3ccccc3OCC)c(C(F)(F)F)oc12", 5.70]
]}

// pEC50 (Plasmodium falciparum) for CCCO/C(O)=C1\C(C)=NC2=C(C(=O)CC(c3ccc(OC)c(OC)c3)C2)C1c1ccc(F)cc1 (configuration not stated) = 7.21

----------
# protocol: ST_JUDE: Cytotoxicity using luciferase to measure ATP as an indicator of the viability of human epithelial hepatocellular carcinoma cells (HepG2)
# Format: toxicity, cell-based
measured.property: EC50

{"columns": ["compound", "observed.measurement"],
 "data": [
  ["CCN(CC)c1ccc(/C=C/c2ccc3ccc(OC)cc3[n+]2CC)cc1", "1.92 µM"],
  ["Cc1ccc(C2(c3ccc(C)cc3)CC2C(=O)Nc2ccc([N+](=O)[O-])cc2O)cc1 (configuration not stated)", "10.7 µM"],
  ["C=CC[n+]1c(C=C2C=CN(CC)C=C2)sc2ccccc21", "> 28.2 µM"],
  ["CC(C)NCC(O)Cn1c2ccc(Cl)cc2c2cc(Cl)ccc21 (configuration not stated)", "7.62 µM"],
  ["CCOC(=O)c1cnc2c(OC)cccc2c1Nc1ccc(OC)c(OC)c1", "> 45.1 µM"]
]}

Reported EC50 for CCOc1ccc(/C=C2\Oc3c(ccc(O)c3CN3CCCCC3)C2=O)cc1 was > 47.1 µM

Reported EC50 for O=C(c1ccccc1)N1CCN(c2ccccc2NC(=O)C(Cl)(Cl)Cl)CC1 was > 33.7 µM

Reported EC50 for CC(CNC(=O)c1cn(C2CCCCC2)cc(C(=O)NC(C)(C)C)c1=O)c1ccccc1 (configuration not stated) was > 52.8 µM

Reported EC50 for CCOC(=O)C1(Cc2ccccc2)CCN(Cc2cccc(OC)c2O)CC1 was > 37 µM

Reported EC50 for C#CC[n+]1ccn2c(C)ccc2c1CC was > 49.8 µM

Reported EC50 for CCN1/C(=C/c2cccc[n+]2C)C=Cc2cc(C)ccc21 was > 32.2 µM

Reported EC50 for O=[N+]([O-])c1ccc(S(=O)(=O)N2CCN(C(=S)NCc3ccco3)CC2)cc1 was > 31.7 µM

Reported EC50 for CN1/C(=C/c2cccc[n+]2C)Sc2ccccc21 was > 28.3 µM

Reported EC50 for CN(C)c1cc[n+](CC(=O)c2ccc(Br)cc2)cc1 was > 30.8 µM

Reported EC50 for COc1ccc(C2CC(=O)C3=C(C2)NC(=O)CC3c2ccc(OC)c(OC)c2)cc1 (configuration not stated) was > 45.4 µM

Reported EC50 for CCN(CC)CCCOC(=O)c1c(C)oc2cc3c(C(=O)OCCCN(CC)CC)c(C)oc3cc12 was 4.71 µM

Reported EC50 for CCN(CC)CCN1C(=O)c2ccccc2NC1c1ccc(Cl)cc1 (configuration not stated) was > 42.9 µM

Reported EC50 for CCOc1ccc(Nc2cc(C)c3ccc(O)cc3n2)cc1 was 30.4 µM
